The values you see were collected from patent US20100292185A1.

biological target: CTX-M15 β-lactamase (Escherichia coli, UniProt Q9EXV5); construct: expressed as native untagged proteins; made in house; host or cells: E. coli BL21(DE3); assay: β-lactamase enzyme inhibition assay (nitrocefin substrate), CTXM-15; format: biochemical
Sequence (Q9EXV5 entry or part of it): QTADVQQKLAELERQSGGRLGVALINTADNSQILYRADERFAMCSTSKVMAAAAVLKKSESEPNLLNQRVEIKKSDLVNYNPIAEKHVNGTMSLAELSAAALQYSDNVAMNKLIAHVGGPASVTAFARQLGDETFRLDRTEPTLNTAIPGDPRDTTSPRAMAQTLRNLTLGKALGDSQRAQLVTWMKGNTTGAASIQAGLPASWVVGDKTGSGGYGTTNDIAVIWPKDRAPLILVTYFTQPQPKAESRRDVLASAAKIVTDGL
Structures can show the parent of a compound that is named as a salt.
recorded-metric: log10 IC50 (log10 of the value in nM)
The base-10 logarithm of IC50, taken with IC50 in nM, is what appears here.

O=C(N[C@@H](Cc1cccc(C(=O)O)c1O)B(O)O)c1cccc(CNCc2cccnc2)c1 | 0.00
CC(=O)N(CCN)Cc1cccc(C(=O)N[C@@H](Cc2cccc(C(=O)O)c2O)B(O)O)c1 | 0.60
N=C(N)NCc1ccc(CC(=O)N[C@@H](Cc2cccc(C(=O)O)c2O)B(O)O)cc1 [Example 61, formate salt] | 0.60
Cl.NCCNCc1ccc(C(=O)N[C@@H](Cc2cccc(C(=O)O)c2O)B(O)O)cc1 [Example 15, hydrochloride] | 0.85
CC[N+](CC)(CC)Cc1ccc(C(=O)N[C@@H](Cc2cccc(C(=O)O)c2O)B(O)O)cc1 | 1.15

Q: For the compound NCc1ccc(/C(=N/O)C(=O)N[C@@H](Cc2cccc(C(=O)O)c2O)B(O)O)cc1 [Example 53, hydrochloride] , give its measured log10 IC50 value.
Result: 1.08

Q: For the compound N=C(N)NCc1cc(CC(=O)N[C@@H](Cc2cccc(C(=O)O)c2O)B(O)O)ccn1 [Example 64, formate] , give its measured log10 IC50 value.
Result: 0.48
